- TARGET OF ASSAY: Synaptic vesicular amine transporter (Homo sapiens, UniProt Q05940)
- Sequence (Q05940 whole entry): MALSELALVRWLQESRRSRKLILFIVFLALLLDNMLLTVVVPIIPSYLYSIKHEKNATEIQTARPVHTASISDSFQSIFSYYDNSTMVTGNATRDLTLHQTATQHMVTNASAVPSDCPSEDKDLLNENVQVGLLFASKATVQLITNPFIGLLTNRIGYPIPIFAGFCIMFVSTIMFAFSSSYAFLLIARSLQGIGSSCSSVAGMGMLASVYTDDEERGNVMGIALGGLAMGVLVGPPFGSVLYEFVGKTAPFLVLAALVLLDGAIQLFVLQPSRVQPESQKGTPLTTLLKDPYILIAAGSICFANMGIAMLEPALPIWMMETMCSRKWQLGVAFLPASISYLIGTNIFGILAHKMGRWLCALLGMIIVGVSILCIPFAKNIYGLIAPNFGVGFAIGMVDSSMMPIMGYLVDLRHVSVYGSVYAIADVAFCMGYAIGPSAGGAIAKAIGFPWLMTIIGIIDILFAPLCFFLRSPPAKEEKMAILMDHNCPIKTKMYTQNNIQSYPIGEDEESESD
- ASSAY PROTOCOL: Substrate uptake and inhibition of the Vesicular Amine Transporter 2 (VMAT2, SLC18A2) as assessed by uptake of a fluorescent substrate (FFN206) in HEK-293 JumpIN-SLC18A2 cells (PubChem AID: 1794817)
PARAMETER: pIC50
Answers are plain numbers, as −log10 of the molar value.

Q: Look up pIC50 of COc1cc2c(cc1OC)C1CC(=O)C(CC(C)C)CN1CC2 (stereo unspecified) [TETRABENAZINE] and report it.
Ans: 7.70

----------
- TARGET OF ASSAY: Synaptic vesicular amine transporter (Homo sapiens, UniProt Q05940)
- ASSAY PROTOCOL: Substrate uptake and inhibition of the Vesicular Amine Transporter 2 (VMAT2, SLC18A2) as assessed by uptake of a fluorescent substrate (FFN206) in HEK-293 JumpIN-SLC18A2 cells (PubChem AID: 1794817)
PARAMETER: EC50 (µM)
Answers are plain numbers, in µM.

Q: Give EC50 for this entry on Synaptic vesicular amine transporter (Homo sapiens, UniProt Q05940): CNc1ccc2c(CCN)cc(=O)oc2c1
Ans: 3.56
